FYI, the data here is from ChEMBL document CHEMBL1212831.

Exercise: state measured pEC50 for each of the compounds provided.
Tested target: UniProtKB P42262
Sequence (P42262 whole entry): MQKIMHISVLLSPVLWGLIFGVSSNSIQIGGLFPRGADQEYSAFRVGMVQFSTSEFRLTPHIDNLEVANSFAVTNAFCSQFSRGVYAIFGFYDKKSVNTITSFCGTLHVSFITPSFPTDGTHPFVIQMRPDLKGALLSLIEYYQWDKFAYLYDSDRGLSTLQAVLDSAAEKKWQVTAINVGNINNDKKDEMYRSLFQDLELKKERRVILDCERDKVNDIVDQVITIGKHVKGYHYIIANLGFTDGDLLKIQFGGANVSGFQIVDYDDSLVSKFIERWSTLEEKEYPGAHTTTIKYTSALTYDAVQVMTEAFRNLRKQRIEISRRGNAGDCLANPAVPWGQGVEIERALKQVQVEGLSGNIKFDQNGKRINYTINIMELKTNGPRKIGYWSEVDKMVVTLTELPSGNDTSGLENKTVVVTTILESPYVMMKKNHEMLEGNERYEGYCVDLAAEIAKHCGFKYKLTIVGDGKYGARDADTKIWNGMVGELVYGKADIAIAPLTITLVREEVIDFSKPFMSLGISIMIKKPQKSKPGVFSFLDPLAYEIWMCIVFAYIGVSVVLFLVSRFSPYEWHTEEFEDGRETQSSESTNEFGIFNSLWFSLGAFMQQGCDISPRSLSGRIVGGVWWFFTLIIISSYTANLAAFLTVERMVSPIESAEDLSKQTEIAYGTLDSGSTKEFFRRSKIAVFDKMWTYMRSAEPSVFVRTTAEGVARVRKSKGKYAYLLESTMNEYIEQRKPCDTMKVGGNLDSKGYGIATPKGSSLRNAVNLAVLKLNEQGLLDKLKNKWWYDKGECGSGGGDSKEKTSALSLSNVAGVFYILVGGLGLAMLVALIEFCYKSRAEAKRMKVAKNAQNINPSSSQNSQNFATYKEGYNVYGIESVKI
Give bare numbers, as −log10 of the molar value.

Completed entries (count: 2):
Compound | Tested target | pEC50
CC(C)S(=O)(=O)NC1Cc2ccc(-c3cccc(CN4CCCC4=O)c3)cc2C1 (stereo not drawn) | UniProtKB P42262 | 4.90
CC(C)S(=O)(=O)NC1Cc2ccc(-c3cccc(S(=O)(=O)N(C)C)c3)cc2C1 (stereo not drawn) | UniProtKB P42262 | 5.10

Please turn your attention to the following entry.
Query :: What value of pEC50 has been recorded for this entry: CC(C)S(=O)(=O)NC1Cc2ccc(-c3ccc(Cl)cn3)cc2C1 (stereo not drawn)
Result :: 5.10
